Biological target: PD brain tissues (Homo sapiens)
Construct: The brain tissue from PD and AD cases was obtained from the Banner Sun Health Research Institute Brain and Body Donation Program; tissue Banner Sun Health Research Institute Brain and Body Donation Program; host or cells: human PD post mortem brain tissue
Assay: homologous competitive binding assay of radiotracers, PD tissue
Details: Figure 5; single representative curve; read-out: Kd, PD tissue, representative assay
pKd: −log10 of the molar value.
Property measured: pKd

>>> df
                                   compound  property_measured  data_value
0  COc1ccc(Nc2ccc3cc(OCC[18F])ccc3n2)cn1 [[^18F]7j]                pKd        8.44
